The measurements presented in this section are drawn from the supplement of paper PMC10065799.

Biological target: EPHB1 (UniProt P54762)
Sequence (P54762 whole entry, looked up): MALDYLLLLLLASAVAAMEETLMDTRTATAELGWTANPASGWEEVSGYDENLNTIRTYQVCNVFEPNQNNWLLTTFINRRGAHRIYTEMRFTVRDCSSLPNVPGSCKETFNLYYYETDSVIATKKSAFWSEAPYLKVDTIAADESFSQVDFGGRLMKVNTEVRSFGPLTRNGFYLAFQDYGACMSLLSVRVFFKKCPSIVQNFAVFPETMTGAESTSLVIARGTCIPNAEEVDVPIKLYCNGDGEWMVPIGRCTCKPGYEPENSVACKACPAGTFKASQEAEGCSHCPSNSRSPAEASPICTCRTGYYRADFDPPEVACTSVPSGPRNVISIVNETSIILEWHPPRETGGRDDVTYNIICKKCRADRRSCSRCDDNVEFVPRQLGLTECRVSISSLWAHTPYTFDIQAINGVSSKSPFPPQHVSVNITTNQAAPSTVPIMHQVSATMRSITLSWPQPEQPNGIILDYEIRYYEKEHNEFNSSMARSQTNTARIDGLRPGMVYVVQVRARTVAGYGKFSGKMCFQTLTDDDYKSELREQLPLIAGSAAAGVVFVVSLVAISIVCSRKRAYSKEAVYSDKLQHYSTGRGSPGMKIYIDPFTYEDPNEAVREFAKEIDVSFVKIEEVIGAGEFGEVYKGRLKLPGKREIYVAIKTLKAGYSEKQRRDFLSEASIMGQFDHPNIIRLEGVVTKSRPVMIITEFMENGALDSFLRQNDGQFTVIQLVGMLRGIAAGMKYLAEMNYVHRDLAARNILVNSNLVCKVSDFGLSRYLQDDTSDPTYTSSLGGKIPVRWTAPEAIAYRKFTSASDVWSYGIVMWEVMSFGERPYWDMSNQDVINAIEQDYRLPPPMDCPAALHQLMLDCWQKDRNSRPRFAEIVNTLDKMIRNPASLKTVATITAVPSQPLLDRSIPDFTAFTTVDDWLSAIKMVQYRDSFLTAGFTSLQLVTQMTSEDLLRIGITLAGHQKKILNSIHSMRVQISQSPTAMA
Experiment: phosphorylation enrichment, bacterial display (enrichment ratio); higher = better substrate or ligand; peptides without Tyr show the background;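 further: 11-residue human phosphosite peptides and single-mutation variants displayed on the E. coli surface, counted by deep sequencing, each peptide's frequency after selection divided by its frequency in the unselected input library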;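 further: frequency after pTyr selection over input frequency; kinase dosed for 20-30% of maximal phosphorylation in three min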
Property: phosphorylation enrichment

The following sequences have reported results that may help.
{"Residue string": "QRVLLYVQRET [GRHL3_Y518_R520Q]", "Study system": "EPHB1 (UniProt P54762)", "phosphorylation enrichment": 1.04}
{"Residue string": "IRRQGYSHRIL [MYO3B_Y993]", "Study system": "EPHB1 (UniProt P54762)", "phosphorylation enrichment": 0.4}
{"Residue string": "EAIAKYDLKAT [GRB2_Y7_F9L]", "Study system": "EPHB1 (UniProt P54762)", "phosphorylation enrichment": 0.489}
{"Residue string": "KAIMIYVSSFF [ACTN4_Y260_T259I_YF]", "Study system": "EPHB1 (UniProt P54762)", "phosphorylation enrichment": 0.457}

For every record below, what is its phosphorylation enrichment?
1. DAVCYYRMENA [NPHS2_Y195_I192V]
2. PVKDPYVMFPQ [PLEKHG2_Y489]

A)
0.622
0.603

---

So I've got a bunch of sequences here, and I need their phosphorylation enrichment values.
System: Fer (mouse)
Experiment: phosphorylation enrichment, bacterial display (enrichment ratio); higher = better substrate or ligand; peptides without Tyr show the background
Numbers only.

The following sequences have reported results that may help.
{"Residue string": "GFFDLYGGEKF [PTPN11_Y66_D61G_YF]", "Study system": "Fer (mouse)", "Measured value": 0.72}
{"Residue string": "QRVLLYVQRET [GRHL3_Y518_R520Q]", "Study system": "Fer (mouse)", "Measured value": 0.885}
{"Residue string": "SPLTDYSPQLQ [OTC_Y345_L341P]", "Study system": "Fer (mouse)", "Measured value": 0.421}
{"Residue string": "LEQQKYTVTID [IKBKB_Y199_V203I]", "Study system": "Fer (mouse)", "Measured value": 0.518}
{"Residue string": "CTTLHYNFMCN [TP53_Y234_I232L_YF]", "Study system": "Fer (mouse)", "Measured value": 0.708}
{"Residue string": "PRQRRYVYYYS [PTEN_Y174_S170R]", "Study system": "Fer (mouse)", "Measured value": 0.904}
{"Residue string": "SDGGCYEQLFV [MC4R_Y41]", "Study system": "Fer (mouse)", "Measured value": 9.7}
{"Residue string": "LPSKDYAEVGR [HP_Y272]", "Study system": "Fer (mouse)", "Measured value": 0.801}

For every record below, what is its phosphorylation enrichment?
1. EDASEYFENFI [PARP4_Y214_F215Y_YF]
2. FLTLHYDAKPQ [ANG_Y38_Q36L]
3. HKANEYYPVVI [ADAMTS18_Y764_L769I]
4. SCRSKYVGLWG [KCNQ1_Y184_G179S]
5. PLLTDYSPQLQ [OTC_Y345_S340P]

A)
1: 0.598; 2: 0.328; 3: 1.26; 4: 0.465; 5: 0.879

Looking up FDKEFYSVHNK [MET_Y1235_YF] , I found its phosphorylation enrichment recorded as 0.561

---

Biological target: Fes (UniProt P07332)
Sequence (P07332 whole entry, looked up): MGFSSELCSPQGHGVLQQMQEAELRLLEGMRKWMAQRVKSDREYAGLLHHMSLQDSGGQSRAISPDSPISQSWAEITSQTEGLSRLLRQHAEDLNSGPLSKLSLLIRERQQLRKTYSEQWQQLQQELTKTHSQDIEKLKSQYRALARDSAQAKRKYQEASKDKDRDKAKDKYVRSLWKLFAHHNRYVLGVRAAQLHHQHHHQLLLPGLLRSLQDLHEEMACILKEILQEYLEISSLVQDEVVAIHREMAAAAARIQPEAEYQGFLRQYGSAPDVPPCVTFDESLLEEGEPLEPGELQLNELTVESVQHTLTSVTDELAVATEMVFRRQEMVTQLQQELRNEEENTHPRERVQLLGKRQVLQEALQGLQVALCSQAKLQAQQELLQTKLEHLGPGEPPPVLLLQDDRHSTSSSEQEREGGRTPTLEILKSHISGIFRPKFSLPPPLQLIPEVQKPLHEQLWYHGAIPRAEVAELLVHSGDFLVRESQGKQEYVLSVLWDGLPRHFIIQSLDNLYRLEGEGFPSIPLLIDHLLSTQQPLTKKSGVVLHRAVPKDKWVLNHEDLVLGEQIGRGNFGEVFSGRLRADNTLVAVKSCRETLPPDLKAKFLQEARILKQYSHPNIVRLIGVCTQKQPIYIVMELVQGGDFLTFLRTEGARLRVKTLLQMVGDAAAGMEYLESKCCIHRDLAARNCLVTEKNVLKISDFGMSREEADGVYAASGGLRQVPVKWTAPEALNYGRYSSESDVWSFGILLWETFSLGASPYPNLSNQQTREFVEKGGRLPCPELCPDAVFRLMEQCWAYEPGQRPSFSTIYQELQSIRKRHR
Experiment: phosphorylation enrichment, bacterial display (enrichment ratio); higher = better substrate or ligand; peptides without Tyr show the background
Cut-off 0.8 on phosphorylation enrichment, inclusive. At or above means 1.0; below means 0.0.

{"Residue string": "SQPASYQRRLL [PPIG_Y320]", "Assigned category": 0.0}
{"Residue string": "IPTPAYQSLPA [PDCD6IP_Y727_S730L]", "Assigned category": 0.0}
{"Residue string": "KIVFVYVKKRS [DNAI2_Y7_E2K_YF]", "Assigned category": 1.0}
{"Residue string": "VIVRMYDFHVL [RPF2_Y109_G106V_YF]", "Assigned category": 1.0}
{"Residue string": "RFGKVYKAHLF [ROR2_Y488_G490A]", "Assigned category": 0.0}
{"Residue string": "QKPLGYFRVNL [GALE_Y104_D103G_YF]", "Assigned category": 1.0}
{"Residue string": "RPFFLYVAFHN [SGSH_Y174_D179N]", "Assigned category": 1.0}
{"Residue string": "ITQRAYRRHLL [SCN1A_Y1926_I1922T]", "Assigned category": 0.0}
{"Residue string": "LDAFIYDAAVL [GRIN2A_Y730]", "Assigned category": 1.0}
{"Residue string": "LIDTVYSSSSA [OR4C12_Y71]", "Assigned category": 1.0}

Q) Would you say EFNLMYDGAKE [IRF6_Y97_T100A] shows phosphorylation enrichment at minimum 0.8?
A) 1.0

Q) Would you say EYFDGYWGYSV [ITGA2B_Y265] shows phosphorylation enrichment at minimum 0.8?
A) 1.0
